Test system: KB tumor-bearing athymic nude mice
Test Name: Biodistribution of 177Lu-RedFols in KB tumor-bearing mice
Type: in vivo, mouse
Condition Notes: 1 h p.i.
Here the recorded Liver, accumulated activity is given for each entry.
Result Type: Liver, accumulated activity (% IA/g)

1. CN1c2c(nc(N)[nH]c2=O)NC[C@H]1CNc1ccc(C(=O)N[C@@H](CCC(=O)N[C@@H](CCCCNC(=O)CN2CCN(CC(=O)O)CCN(CC(=O)O)CCN(CC(=O)O)CC2)C(=O)N[C@@H](CCCCNC(=O)c2ccc(CNC(=O)CCCCc3ccc(I)cc3)cc2)C(=O)O)C(=O)O)cc1 [[^177Lu]Lu-6R-RedFol-25, metal not drawn]; 2.3
2. CN1c2c(nc(N)[nH]c2=O)NCC1CNc1ccc(C(=O)NC(CCC(=O)NC(CCCCNC(=O)CN2CCN(CC(=O)[O-])CCN(CC(=O)[O-])CCN(CC(=O)[O-])CC2)C(=O)NC(CCCCNC(=O)c2ccc(CNC(=O)CCCc3ccc(I)cc3)cc2)C(=O)O)C(=O)O)cc1.[177Lu+3] (stereo not drawn) [[^177Lu]Lu-6S-RedFol-3]; 3.7
3. CN1c2c(nc(N)[nH]c2=O)NC[C@H]1CNc1ccc(C(=O)N[C@@H](CCC(=O)N[C@@H](CCCCNC(=O)CN2CCN(CC(=O)O)CCN(CC(=O)O)CCN(CC(=O)O)CC2)C(=O)N[C@@H](CCCCNC(=O)c2ccc(CNC(=O)CCCc3ccc(I)cc3)cc2)C(=O)O)C(=O)O)cc1 [[^177Lu]Lu-6R-RedFol-3, metal not drawn]; 3.7
4. CN1c2c(nc(N)[nH]c2=O)NCC1CNc1ccc(C(=O)NC(CCC(=O)NC(CCCCNC(=O)CN2CCN(CC(=O)[O-])CCN(CC(=O)[O-])CCN(CC(=O)[O-])CC2)C(=O)NC(CCCCNC(=O)c2ccc(CNC(=O)CCCCc3ccc(I)cc3)cc2)C(=O)O)C(=O)O)cc1.[177Lu+3] (stereo not drawn) [[^177Lu]Lu-6S-RedFol-25]; 2.3
5. CN1c2c(nc(N)[nH]c2=O)NC[C@H]1CNc1ccc(C(=O)N[C@@H](CCC(=O)N[C@@H](CCCCNC(=O)CN2CCN(CC(=O)O)CCN(CC(=O)O)CCN(CC(=O)O)CC2)C(=O)N[C@@H](CCCCNC(=O)CCCCc2ccc(I)cc2)C(=O)O)C(=O)O)cc1 [[^177Lu]Lu-6R-RedFol-24, metal not drawn]; 2.6

----------
Tested on: KB tumor-bearing athymic nude mice
Test Name: Biodistribution of 177Lu-RedFols in KB tumor-bearing mice
Type: in vivo, mouse
Condition Notes: 4 h p.i.
Procedure: Athymic nude mice (Crl:CD1-Foxn^nu) were kept on a folate-deficient rodent diet (ssniff Spezialdiäten GmbH, Soest, Germany) for at least one week prior to inoculation with the tumor cells. Biodistribution studies were performed approx. two weeks after subcutaneous inoculation with KB tumor cells (5 × 10^6 in 100 μL PBS) (Supplementary Materials Section S12). […] Data were presented as the average ± SD of n = 3−4 mice. […]
Would you please tag the item 1 when its Lung, accumulated activity is 4 % IA/g or above, and -1 when it is below?

1. CN1c2c(nc(N)[nH]c2=O)NC[C@H]1CNc1ccc(C(=O)N[C@@H](CCC(=O)N[C@@H](CCCCNC(=O)CN2CCN(CC(=O)O)CCN(CC(=O)O)CCN(CC(=O)O)CC2)C(=O)N[C@@H](CCCCNC(=O)c2ccc(CNC(=O)CCCc3ccc(I)cc3)cc2)C(=O)O)C(=O)O)cc1 [[^177Lu]Lu-6R-RedFol-3, metal not drawn]; 1
2. CN1c2c(nc(N)[nH]c2=O)NC[C@H]1CNc1ccc(C(=O)N[C@@H](CCC(=O)N[C@@H](CCCCNC(=O)CN2CCN(CC(=O)O)CCN(CC(=O)O)CCN(CC(=O)O)CC2)C(=O)N[C@@H](CCCCNC(=O)c2ccc(CNC(=O)CCCCc3ccc(I)cc3)cc2)C(=O)O)C(=O)O)cc1 [[^177Lu]Lu-6R-RedFol-25, metal not drawn]; -1
3. CN1c2c(nc(N)[nH]c2=O)NCC1CNc1ccc(C(=O)NC(CCC(=O)NC(CCCCNC(=O)CN2CCN(CC(=O)[O-])CCN(CC(=O)[O-])CCN(CC(=O)[O-])CC2)C(=O)NC(CCCCNC(=O)c2ccc(CNC(=O)CCCc3ccc(I)cc3)cc2)C(=O)O)C(=O)O)cc1.[177Lu+3] (stereo not drawn) [[^177Lu]Lu-6S-RedFol-3]; 1
4. CN1c2c(nc(N)[nH]c2=O)NC[C@H]1CNc1ccc(C(=O)N[C@@H](CCC(=O)N[C@@H](CCCCNC(=O)CN2CCN(CC(=O)O)CCN(CC(=O)O)CCN(CC(=O)O)CC2)C(=O)N[C@@H](CCCCNC(=O)CCCCc2ccc(I)cc2)C(=O)O)C(=O)O)cc1 [[^177Lu]Lu-6R-RedFol-24, metal not drawn]; -1

----------
Test Name: Radiolytic stability of 177Lu-DOTA-ALBs in PBS (HPLC)
Assay type: physicochemical
Condition Notes: with L-ascorbic acid, 24 h, room temperature, 100 MBq/500 µL PBS
Experimental: The radiolabeling of DOTA-ALBs was carried out under standard labeling conditions at pH 4.5. […] An analytical HPLC system equipped with a C18 column and a radioactivity detector was used for quality control of the radiolabeled DOTA-ALBs (Supplementary Materials Section S2). […] The radiolytic stability of the ^177Lu-DOTA-ALBs (50 MBq/nmol) diluted in phosphate-buffered saline (PBS; 100 MBq/500 μL) was assessed in vitro in the absence and presence of L-ascorbic acid (Supplementary Materials Section S3). […]
Result Type: Intact radioligand (%)

1. O=C(O)CN1CCN(CC(=O)O)CCN(CC(=O)NCCC(=O)N[C@@H](CCCCNC(=O)CCCc2ccc(I)cc2)C(=O)O)CCN(CC(=O)O)CC1.[177Lu] [[^177Lu]Lu-DOTA-ALB-1]; 96
2. O=C(O)CN1CCN(CC(=O)O)CCN(CC(=O)NCCC(=O)N[C@@H](CCCCNC(=O)c2ccc(CNC(=O)CCCc3ccc(I)cc3)cc2)C(=O)O)CCN(CC(=O)O)CC1.[177Lu] [[^177Lu]Lu-DOTA-ALB-3]; 97
3. O=C(O)CN1CCN(CC(=O)O)CCN(CC(=O)NCCC(=O)N[C@@H](CCCCNC(=O)c2ccc(CNC(=O)CCCCc3ccc(I)cc3)cc2)C(=O)O)CCN(CC(=O)O)CC1.[177Lu] [[^177Lu]Lu-DOTA-ALB-25]; 97
4. O=C(O)CN1CCN(CC(=O)O)CCN(CC(=O)NCCC(=O)N[C@@H](CCCCNC(=O)CCCCc2ccc(I)cc2)C(=O)O)CCN(CC(=O)O)CC1.[177Lu] [[^177Lu]Lu-DOTA-ALB-24]; 95

----------
Measured logD Values, listed per entry.
Test Name: n-octanol/PBS distribution coefficient (shake-flask) of 177Lu-RedFols
Assay type: physicochemical
Condition Notes: n-octanol/PBS pH 7.4
Result Type: logD Values

1. CN1c2c(nc(N)[nH]c2=O)NC[C@H]1CNc1ccc(C(=O)N[C@@H](CCC(=O)N[C@@H](CCCCNC(=O)CN2CCN(CC(=O)O)CCN(CC(=O)O)CCN(CC(=O)O)CC2)C(=O)N[C@@H](CCCCNC(=O)c2ccc(CNC(=O)CCCCc3ccc(I)cc3)cc2)C(=O)O)C(=O)O)cc1 [[^177Lu]Lu-6R-RedFol-25, metal not drawn]; −3.0
2. CN1c2c(nc(N)[nH]c2=O)NCC1CNc1ccc(C(=O)NC(CCC(=O)NC(CCCCNC(=O)CN2CCN(CC(=O)[O-])CCN(CC(=O)[O-])CCN(CC(=O)[O-])CC2)C(=O)NC(CCCCNC(=O)c2ccc(CNC(=O)CCCc3ccc(I)cc3)cc2)C(=O)O)C(=O)O)cc1.[177Lu+3] (stereo not drawn) [[^177Lu]Lu-6S-RedFol-3]; −3.2
3. CN1c2c(nc(N)[nH]c2=O)NC[C@H]1CNc1ccc(C(=O)N[C@@H](CCC(=O)N[C@@H](CCCCNC(=O)CN2CCN(CC(=O)O)CCN(CC(=O)O)CCN(CC(=O)O)CC2)C(=O)N[C@@H](CCCCNC(=O)c2ccc(CNC(=O)CCCc3ccc(I)cc3)cc2)C(=O)O)C(=O)O)cc1 [[^177Lu]Lu-6R-RedFol-3, metal not drawn]; −3.2

----------
System: KB tumor-bearing athymic nude mice
Test Name: Biodistribution of 177Lu-RedFols in KB tumor-bearing mice
Assay type: in vivo, mouse
Condition Notes: 24 h p.i.
Assign class by Spleen, accumulated activity: not lower than 2 % IA/g means criterion met; lower than 2 % IA/g means criterion not met.

1. CN1c2c(nc(N)[nH]c2=O)NCC1CNc1ccc(C(=O)NC(CCC(=O)NC(CCCCNC(=O)CN2CCN(CC(=O)[O-])CCN(CC(=O)[O-])CCN(CC(=O)[O-])CC2)C(=O)NC(CCCCNC(=O)c2ccc(CNC(=O)CCCCc3ccc(I)cc3)cc2)C(=O)O)C(=O)O)cc1.[177Lu+3] (stereo not drawn) [[^177Lu]Lu-6S-RedFol-25]; criterion not met
2. CN1c2c(nc(N)[nH]c2=O)NC[C@H]1CNc1ccc(C(=O)N[C@@H](CCC(=O)N[C@@H](CCCCNC(=O)CN2CCN(CC(=O)O)CCN(CC(=O)O)CCN(CC(=O)O)CC2)C(=O)N[C@@H](CCCCNC(=O)c2ccc(CNC(=O)CCCc3ccc(I)cc3)cc2)C(=O)O)C(=O)O)cc1 [[^177Lu]Lu-6R-RedFol-3, metal not drawn]; criterion met
3. CN1c2c(nc(N)[nH]c2=O)NC[C@H]1CNc1ccc(C(=O)N[C@@H](CCC(=O)N[C@@H](CCCCNC(=O)CN2CCN(CC(=O)O)CCN(CC(=O)O)CCN(CC(=O)O)CC2)C(=O)N[C@@H](CCCCNC(=O)CCCCc2ccc(I)cc2)C(=O)O)C(=O)O)cc1 [[^177Lu]Lu-6R-RedFol-24, metal not drawn]; criterion not met
4. CN1c2c(nc(N)[nH]c2=O)NCC1CNc1ccc(C(=O)NC(CCC(=O)NC(CCCCNC(=O)CN2CCN(CC(=O)[O-])CCN(CC(=O)[O-])CCN(CC(=O)[O-])CC2)C(=O)NC(CCCCNC(=O)c2ccc(CNC(=O)CCCc3ccc(I)cc3)cc2)C(=O)O)C(=O)O)cc1.[177Lu+3] (stereo not drawn) [[^177Lu]Lu-6S-RedFol-3]; criterion met
5. CN1c2c(nc(N)[nH]c2=O)NC[C@H]1CNc1ccc(C(=O)N[C@@H](CCC(=O)N[C@@H](CCCCNC(=O)CN2CCN(CC(=O)O)CCN(CC(=O)O)CCN(CC(=O)O)CC2)C(=O)N[C@@H](CCCCNC(=O)c2ccc(CNC(=O)CCCCc3ccc(I)cc3)cc2)C(=O)O)C(=O)O)cc1 [[^177Lu]Lu-6R-RedFol-25, metal not drawn]; criterion not met
